assay: Aqueous solubility at pH 7.4; assay type: physicochemical
MEASUREMENT NAME: solubility (µM)
# output: bare number, implied unit µM

The compound listed as O=c1[nH]c2cc(Nc3ccccc3)ccc2n1CC1CCCCC1 has a reported solubility of 0.2

The compound listed as CN1CCN(c2cc3c(cc2Nc2ccccc2)[nH]c(=O)n3CC2CCCCC2)CC1 has a reported solubility of 5.7

###

target: Mitogen-activated protein kinase 9 (Homo sapiens); assay: Inhibition of Jnk2alpha2
Sequence (P45984 whole entry): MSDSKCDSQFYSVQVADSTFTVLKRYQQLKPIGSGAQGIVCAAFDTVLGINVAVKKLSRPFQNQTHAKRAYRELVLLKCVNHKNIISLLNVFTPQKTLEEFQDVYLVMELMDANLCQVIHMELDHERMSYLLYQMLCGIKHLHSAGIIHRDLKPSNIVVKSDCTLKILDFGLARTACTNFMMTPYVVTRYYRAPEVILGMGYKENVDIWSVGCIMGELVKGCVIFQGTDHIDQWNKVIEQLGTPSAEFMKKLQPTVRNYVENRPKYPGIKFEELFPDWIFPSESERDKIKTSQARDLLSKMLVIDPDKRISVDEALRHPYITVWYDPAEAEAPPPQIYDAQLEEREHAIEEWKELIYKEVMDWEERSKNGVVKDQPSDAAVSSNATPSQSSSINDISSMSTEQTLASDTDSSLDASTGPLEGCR
MEASUREMENT NAME: IC50 (µM)
# output: bare number, implied unit µM

The molecule listed as O=c1[nH]c2cc(Nc3ccc(F)cc3F)ccc2n1CC1CCCCC1 has a reported IC50 of 5.5
